- Tested on: MDA-MB-231 breast
- assay text: NCI-60 one-dose screen, 48 h (100 = growth as untreated, 0 = no growth, -100 = all killed)
- run parameters: 10 µM unless noted
About 83,000 compounds went through this panel and 20% of them were active in at least one assay; those are over-represented in the sample as a whole. Active and inactive are the calls of the source. Rule for the calls: active = growth percent below 10; inactive = the rest.
Let's look at some compounds and their measured growth.

compound: NCc1cn2cc(Cl)sc2n1
growth: 112% (inactive)

compound: CN(CC(=O)N(Cc1ccc(C2CCCCC2)cc1)c1ccc(C(=O)NO)cc1)S(=O)(=O)c1c(F)c(F)c(F)c(F)c1F
growth: 40.3% (inactive)

compound: c1ccc2sc(SCCCn3ccnc3)nc2c1
growth: 89.6% (inactive)

Q: Which growth value is on record for COc1cccc(-c2nc3sccn3c2-c2ccnc(NCCCNS(=O)(=O)c3ccc(Cl)cc3)c2)c1 ?
Result: 59.5% (inactive)

Q: Next compound: COc1ccc(C/C(C)=C(\c2ccc(OCCN3CCCCCC3)cc2)c2ccc(OC(=O)C3CCCCC3)cc2)cc1
Result: 67.6% (inactive)

Q: Next compound: COc1ccc(/C=C/C(=O)c2ccc(NC(=O)c3cc4cc5ccccc5nc4s3)cc2)cc1OC
Result: 91.6% (inactive)

Q: Next compound: C[C@H](CCC(=O)O)[C@H]1CC[C@H]2[C@@H]3CC[C@@H]4/C(=C\c5ccco5)C(=O)/C(=C\c5ccco5)C[C@]4(C)[C@H]3CC[C@]12C
Result: 107% (inactive)

###

Let's look at some compounds and their measured growth.
- Test system: HS 578T breast
- assay text: NCI-60 one-dose screen, 48 h (100 = growth as untreated, 0 = no growth, -100 = all killed)
- run parameters: 10 µM unless noted
- Description: Growth inhibition of the HS 578T human tumor cell line is measured as a screen for anti-cancer activity. Cells are grown in 96 well plates and exposed to the test compound for 48 hours. Compounds are tested at a single concentration, which is 10^-5 M for most compounds. The reported endpoint is percent growth (GI% or GIPRCNT), where numbers from 0 - 100% represent growth inhibition, and numbers from -100% - 0 represent cell death. For example, a value of 40 represents 60% growth inhibition. […]
This is part of a sample that, as a whole, favours compounds with a hit. Of some 83,000 tested, about 20% had one in any assay.
Write the number in % without appending the unit.

Here are 6 compounds together with their reported answers.
compound: Cc1cc(Nc2nc(N3CCNCC3)nc3ccccc23)n[nH]1
endpoint unit: %
observed: 65.2
//
compound: CC[n+]1ccc2c(c1)C(=O)c1nccc3c1c-2nc1ccccc13
endpoint unit: %
observed: -21.8
//
compound: COc1ccc(C2Nc3ccccc3-n3cccc32)cc1 (stereo not given)
endpoint unit: %
observed: 93.2
//
compound: COCCOc1ccc(-c2nc3ccc(-c4nc5ccc(N6CCN(C)CC6)cc5[nH]4)cc3[nH]2)cc1
endpoint unit: %
observed: -3.7
//
compound: CCCCCCNC(=O)Oc1ccc(/C(=C(\C)c2ccccc2)c2ccc(OCCN(CC)CC)cc2)cc1
endpoint unit: %
observed: 36.4
//
compound: C=C1CCC2C3(C)COC(C)(C)OC3CCC2(C)C1C/C=C1/C(=O)OCC1OC(C)=O (stereo not given)
endpoint unit: %
observed: 12

Q: Which growth value is on record for O=C1Nc2c(ccc(Cl)c2Cl)/C1=C/c1cc(Br)c(O)c(Br)c1 ?
Result: 43.5

Q: Next compound: COc1ccc(C2c3ccc4ccccc4c3Oc3ncnc(N)c32)cc1 (stereo not given)
Result: 82.2

Q: Next compound: COc1ccc(S(=O)(=O)NCCCNc2cc(-c3c(-c4cccc(OC)c4)nc4sccn34)ccn2)cc1
Result: 62.9

Q: Next compound: COc1ccc(/C=N\NC(=O)CN2CCN(c3cc4c(cc3F)c(=O)c(C(=O)N/N=C/c3ccc(OC)cc3)cn4C3CC3)CC2)cc1
Result: 92.4

###

- Tested on: RXF 393 renal
- assay text: NCI-60 one-dose screen, 48 h (100 = growth as untreated, 0 = no growth, -100 = all killed)
- run parameters: 10 µM unless noted
About 83,000 compounds went through this panel and 20% of them were active in at least one assay; those are over-represented in the sample as a whole.
Answer false (0) if growth is under 60%, and true (1) if it is 60% or more.

Examples from the recorded data:
test smiles: COc1ccc(S(=O)(=O)NCCCNc2nccc(-c3c(-c4cccc(N)c4)nc4sccn34)n2)cc1
classification: true (1)

test smiles: COc1cnc2c(c1)C(=O)c1c-2n(CCCN2CCCC2)c(=O)c2cc([N+](=O)[O-])ccc12
classification: false (0)

test smiles: O=C1c2cc3c(cc2-c2c1c1cc(F)c(F)cc1c(=O)n2C[C@H](O)CO)OCO3
classification: false (0)

test smiles: CC/C=C\C[C@H](O)C/C=C1/C(=O)C=C[C@@H]1C/C=C\CCCC(=O)NC
classification: false (0)

test smiles: NC(=S)N/N=C/c1ccc(OCc2ccccc2)cc1
classification: false (0)

test smiles: COc1cc(C#N)cc(OC)c1OCCN(CCOc1c(OC)cc(C#N)cc1OC)S(=O)(=O)c1ccc(C)cc1
classification: true (1)

Q: Entry CCOC(=O)c1c2c(n3ccc(NC(=O)CCN4CCOCC4)cc13)C(=O)c1ncccc1C2=O : is its growth no less than 60%?
Result: true (1)

Q: Next compound: CN1CCOCCOCCOc2ccccc2NC(=O)c2nc(cnc2N)-c2ccc(cc2)S1(=O)=O
Result: false (0)

Q: Next compound: O=C1C=CC(=O)c2c1nc1n2CCCC1
Result: true (1)

###

- System: SK-MEL-28 melanoma
- assay text: NCI-60 one-dose screen, 48 h (100 = growth as untreated, 0 = no growth, -100 = all killed)
- run parameters: 10 µM unless noted
About 83,000 compounds went through this panel and 20% of them were active in at least one assay; those are over-represented in the sample as a whole.
value type: growth (%)
Write the number in % without appending the unit.

Here are 3 compounds together with their reported answers.
compound: CC(C)Oc1nc2c(c(=O)n(C)c(=O)n2C)n1C
value type: growth
endpoint unit: %
observed: 105
--
compound: O=C1c2cc3c(cc2-c2c1c1cc(Cl)c(Cl)cc1c(=O)n2CCCn1ccnc1)OCO3
value type: growth
endpoint unit: %
observed: 44.3
--
compound: Cc1cc(=O)oc2cc(Oc3nc(-c4cccs4)cn4c(-c5cccs5)cnc34)ccc12
value type: growth
endpoint unit: %
observed: 23.9

Q: Which growth value is on record for CN1CCN(Cc2ccc(NC(=O)c3[nH]ncc3Nc3ncnc4[nH]ccc34)cc2)CC1 ?
Result: 2.8

Q: Next compound: O=C1O[C@H]([C@H](O)CO)C(O)=C1O
Result: 117

Q: Next compound: CC/C=C\C[C@H](O)C/C=C1/C(=O)C=C[C@@H]1C/C=C\CCCC(=O)NC(C)C
Result: 4.94

Q: Next compound: CS(=O)(=O)c1c(Nc2ccccc2)n[nH]c1N
Result: 106

Q: Next compound: CSc1nc2sc3c(c2c(=O)n1-c1ccc(C(C)C)cc1)CCC(=O)C3
Result: 28.7

Q: Next compound: CN(C)c1ccc(C2Nc3ccccc3-n3cccc32)cc1 (stereo not given)
Result: 107

Q: Next compound: COc1ccc(-c2nn(-c3ccccc3)cc2/C=C/C(=O)OCc2cn(-c3ccc(F)c(Cl)c3)nn2)cc1
Result: 115

###

- Test system: HT29 colon
- assay text: NCI-60 one-dose screen, 48 h
- run parameters: 10 µM unless noted
Compounds without any hit were thinned out: in the full panel of roughly 83,000, 20% have a hit. Calls of active or inactive are those of the source. Rule for the calls: active = growth percent below 10; inactive = the rest.
The reply should be one of these categories: active, inactive

molecule: CC(=O)C1=C(O)C=C2Oc3c(C(=O)/C=C/c4cc(C(F)(F)F)cc(C(F)(F)F)c4)c(O)c(C)c(O)c3[C@]2(C)C1=O
classification: active
--
molecule: CC1(C)CC(=O)C(c2c(-c3ccccc3)[nH]c3[nH]c(=S)[nH]c(=O)c23)=C(O)C1
classification: inactive
--
molecule: O=C(/C=C\c1cccc([N+](=O)[O-])c1)c1ccccc1
classification: active
--
molecule: CCOC(=O)C12CCCC1=CC(=O)CC2 (stereo not drawn)
classification: inactive
--
molecule: COc1ccc(-c2cc(=O)[nH]c3c(OC)c4ccccc4c(OC)c23)cc1
classification: active

Q: Assay result, entry O=C1c2c[n+](Cc3ccccc3)ccc2-c2nc3ccccc3c3ccnc1c23 — outcome?
Result: active

Q: Next molecule: COc1ccc(-c2cnoc2-c2cc(OC)c3c(c2)OCCO3)cc1
Result: active

Q: Next molecule: CC(C)[C@@H]1CC[C@]2(C(=O)NCCCCN=C(N)N)CC[C@]3(C)[C@H](CC[C@@H]4[C@@]5(C)CCC(=O)C(C)(C)[C@@H]5CC[C@]43C)[C@@H]12
Result: inactive

Q: Next molecule: CCCCCCCCOC(=O)CC[C@@H](C)[C@H]1CC[C@H]2[C@@H]3[C@H](OC(=O)CCN)C[C@@H]4C[C@H](OC(=O)CCN)CC[C@]4(C)[C@H]3C[C@H](OC(=O)CCN)[C@]12C
Result: inactive

Q: Next molecule: C[C@]12C[C@@H](c3ccoc3)OC(=O)[C@@H]1CC[C@]1(C)[C@@H]2CC[C@@H](O)[C@]1(C)O
Result: inactive

Q: Next molecule: C[C@H](CCC(=O)O)[C@H]1CC[C@H]2[C@@H]3CC[C@@H]4/C(=C\c5ccco5)C(=O)/C(=C\c5ccco5)C[C@]4(C)[C@H]3CC[C@]12C
Result: inactive

Q: Next molecule: O=[N+]([O-])c1cccc(-c2nc3sccn3c2-c2ccnc(NCCNS(=O)(=O)c3ccc(C(F)(F)F)cc3)n2)c1
Result: inactive
